Each recorded value in this set is attributed to PubChem BioAssay (NCI).

# System: BT-549 breast
# assayComment: NCI-60 one-dose screen, 48 h (100 = growth as untreated, 0 = no growth, -100 = all killed)
# conditionSummary: 10 µM unless noted
Compounds without any hit were thinned out: in the full panel of roughly 83,000, 20% have a hit.
Records here are stratified by growth; strata: lower range: < 70%; middle range: ≥ 70% and < 90%; upper range: ≥ 90%

| smilesRepresentation | classLabel |
| --- | --- |
| COc1ccc(NC(=O)Nc2ccc(-c3ccc(OC)c(OC)c3)nc2C)cc1 | lower range |
| COc1cccc(-c2nc3sccn3c2-c2ccnc(NCCNC(=O)c3ccccc3)n2)c1 | middle range |
| Nc1c(C(=O)O)[nH]c(=O)[nH]c1=O | upper range |
| COc1cc2c(/C=C3/C(=O)Nc4ccc(O)cc43)c(Cl)n(Cc3cc(OC)c(OC)c(OC)c3)c2cc1C | lower range |
| COc1cc(Br)c(-c2nc(-c3ccccc3)c(-c3ccccc3)n2Cc2ccccc2)cc1OC | middle range |
| Cc1ccc(-c2cc(-c3nnc(SCC(=O)c4ccccc4)o3)c3ccccc3n2)cc1 | upper range |
| Nc1nc(Cl)cc(NCCCCNc2cc(Cl)nc(N)n2)n1 | upper range |
| COc1cc(C(=O)N2CCN(C(=O)c3cc(OC)c(OCc4ccccc4)cc3N)CC2)c(N)cc1OCc1ccccc1 | upper range |
| COC(=O)CCCNS(=O)(=O)c1cc(C(=O)Nc2ccc(NC(=O)c3cc(S(=O)(=O)NCCCC(=O)OC)c(O)c(O)c3O)cc2)c(O)c(O)c1O | upper range |
| CCCCOc1nc2ccc(Cl)cc2cc1/C=C/C(=O)/C=C/c1ccc(OC)cc1 | upper range |
| CN(C)CCNc1nc2ccccc2c2c(=O)c3ccccc3sc12 | middle range |
| O=C(O)c1ccc(-n2cc(/C=N/Nc3ccccc3F)c(-c3ccc(O)cc3)n2)cc1 | middle range |
| COc1ccc(-c2cnc(-c3ccc(F)cc3)[nH]2)cc1 | upper range |
| COc1ccc(-c2ccc(NC(=O)Nc3cccc(C(F)(F)F)c3)c(C)n2)cc1 | lower range |
| Cc1nssc1=S | upper range |
| O=C(Nc1ccc(-n2ccc3c(NC(=O)c4ccccc4)ncnc32)cc1)Nc1ccc(Cl)c(Cl)c1 | lower range |
| CN(C)CCS(=O)(=O)Nc1cc(-c2ccc3ncnc(Nc4ccc(F)c(Cl)c4)c3c2)cnc1Cl | lower range |
| O=C(Nc1ccc(-n2cc(-c3ccncc3)c(-c3ccc(O)c(Cl)c3)n2)cc1)c1ccc(Cl)c(C(F)(F)F)c1 | lower range |

* * *

# Tested on: NCI-H23 lung
# assayComment: NCI-60 one-dose screen, 48 h (100 = growth as untreated, 0 = no growth, -100 = all killed)
# conditionSummary: 10 µM unless noted
Compounds without any hit were thinned out: in the full panel of roughly 83,000, 20% have a hit.
# label = True if growth >= 80% else False

| molecule | classLabel |
| --- | --- |
| CCCCCC/C=N/Nc1ccc([N+](=O)[O-])cn1 | True |
| S=c1[nH]nc(Cn2c3ccccc3c3ccncc32)o1 | True |
| COc1ccc(Cl)cc1NC(=O)c1cc2c([nH]1)-c1nc(NC(=O)C(C)C)sc1CC2 | True |
| COc1cccc(-c2nc3sccn3c2-c2ccnc(NCCNC(=O)Nc3cccc(C(F)(F)F)c3)n2)c1 | True |
| COc1ccc(C(=O)Cn2cnc3c(Nc4cc(C(=O)Nc5ccc(N6CCN(CCO)CC6)cc5)ccc4C)ncnc32)cc1 | True |
| Cc1ccc(/C=C2/C(=O)Nc3cc(Cl)c(-c4csc(N)n4)cc32)cc1 | False |
| Nc1ncnc2c1c(C(F)(F)F)cn2[C@@H]1O[C@H](CO)[C@@H](O)[C@H]1O | False |
| C=C1C(=O)O[C@H]2[C@H]1CC/C(COC(=O)c1ccccc1)=C\CC[C@@]1(C)O[C@@H]21 | False |
| Nc1ncnc2c1c(-c1ccc(Oc3ccccc3)cc1)nn2C[C@H]1SSC[C@H]1O | False |
| c1ccc(-c2nc3sc(C(c4ccccc4)c4ccccc4)nn3c2-c2ccccc2)cc1 | True |
| O=[N+]([O-])c1cccc2cc(S(=O)(=O)O)ccc12 | True |
| CCOC(=O)c1cnc2c(OC)ccc(OC)c2c1Cl | True |
| C#C[C@@]1(O)[C@@H](CO)O[C@@H](n2cc(C(F)(F)F)c3c(N)ncnc32)[C@@H]1O | False |
| O=C(Nc1ccc(-n2ccc3c(NC(=O)c4ccccc4)nccc32)cc1)c1cccc(C(F)(F)F)c1 | False |
| O=C(NCCNc1nccc(-c2c(-c3cccc(O)c3)nc3sccn23)n1)Nc1cccc(C(F)(F)F)c1 | True |
| COc1ccc(-c2nn(-c3ccc(NC(=O)Nc4ccc(Cl)c(C(F)(F)F)c4)cc3)cc2-c2ccncc2)cc1Cl | False |
| COc1ccc(-c2c(C#N)cnc(N)c2-c2nc3cc(C)c(C)cc3[nH]2)cc1 | False |
| O=C1OC(N(Cc2ccc(Cl)cc2)c2ccccc2)c2ccccc21 (stereo not given) | True |

* * *

# System: MOLT-4 leukemia
# assayComment: NCI-60 one-dose screen, 48 h
# conditionSummary: 10 µM unless noted
Compounds without any hit were thinned out: in the full panel of roughly 83,000, 20% have a hit. The source made the active and inactive calls. Rule for the calls: active = growth percent below 10; inactive = the rest.
Outcomes: active, inactive

| molecule | classLabel |
| --- | --- |
| O=c1cc(Cl)[nH]c(=O)[nH]1 | inactive |
| COc1ccc2c(c1)C(=O)/C(=C/c1cccc(OCC(=O)c3ccccc3)c1)O2 | active |
| COc1ccc(-c2nnc(SCC(=O)Nc3ccc(C(=O)/C=C/c4ccc(OC)c(OC)c4)cc3)o2)cc1 | inactive |
| CC(CN(C)C)CN1c2ccccc2CCc2ccccc21 (stereo unspecified) | inactive |
| COc1ccc(SC2c3ccc(O)cc3Oc3nc(N)c(C#N)c(N)c32)cc1 (stereo unspecified) | inactive |
| COc1cc(NC(C)CCCN2C(=O)c3ccccc3C2=O)c2nc(C)ccc2c1OC (stereo unspecified) | inactive |
| COc1cc(C(=O)N2CCN(C(=O)c3cc(OC)c(OCc4ccccc4)cc3N)CC2)c(N)cc1OCc1ccccc1 | inactive |
| Nc1n[nH]c2cccc(C#Cc3cccc(NC(=O)c4cccc(C(F)(F)F)c4)c3)c12 | inactive |
| O=C(Nc1ccc(Cl)c(Cl)c1)Nc1ccc(Cl)c([N+](=O)[O-])c1 | active |
| Cc1cc2c(cc1C)N(C(=O)CCl)CCN2C(=O)CCl | active |
| O=c1c2ccccc2sc2c(NCCCNCCO)nc3ccccc3c12 | active |
| CCCC(=O)Oc1ccc(/C(=C(\C)c2ccc(OC)cc2)c2ccc(OCCN3CCCCC3)cc2)cc1 | inactive |
| Cc1cc(C)c(O)c(C(=O)CC(Br)C(=O)O)c1 (stereo unspecified) | inactive |
| C=CC(=O)NC(=O)Nc1ccccc1Cl | inactive |
| COc1ccccc1S(=O)(=O)Nc1ccc2c3c(cc(-c4cnn(C5CC5)c4)nc13)C(=O)N2C | inactive |
| COc1cc(Br)c(-c2nc(-c3ccccc3)c(-c3ccccc3)n2Cc2ccccc2)cc1OC | inactive |
| COC1OCC(OS(=O)(=O)c2ccc(C)cc2)C(OC(=O)c2ccccc2)C1OC(=O)c1ccccc1 (stereo unspecified) | inactive |
| Cc1ccc2[nH]c3nc4cccnc4c(C)c3c2c1 | inactive |
| CCC1S/C(=N\N=C(/C)c2cc3ccccc3o2)N(c2ccccc2)C1=O (stereo unspecified) | active |
| Cc1nccc2c3ccc(OCc4cn(Cc5ccc(Br)cc5)nn4)cc3n(CCCc3ccccc3)c12 | inactive |
| COc1ccc(Cl)cc1NC(=O)c1cc2c(n1C)-c1nc(NC(=O)C(C)C)sc1CC2 | inactive |

* * *

# System: HS 578T breast
# assayComment: NCI-60 one-dose screen, 48 h (100 = growth as untreated, 0 = no growth, -100 = all killed)
# conditionSummary: 10 µM unless noted
Compounds without any hit were thinned out: in the full panel of roughly 83,000, 20% have a hit.
Documented growth across a set of molecules
endpointName: growth (%)

| molecule | reportedMeasurement |
| --- | --- |
| CC(=O)c1ccc2c(c1)C1C=CCC1[C@H](c1cc3c(cc1Br)OCO3)N2 (some centres undefined) | 7.06 |
| CN1C(=O)C2(SCC(C(=O)NCC(=O)OC(C)(C)C)N2C(=O)C2CCCCC2)c2ccccc21 (centres undefined) | 97.5 |
| CN(C)c1ccc(/C=N/n2c(-c3cc(F)c(Cl)cc3Cl)nn(CN3CCOCC3)c2=S)cc1 | 110 |
| COc1ccc(/C=C/C(=O)c2ccc(-n3cc(CN4CCN(c5cc6c(cc5F)c(=O)c(C(=O)O)cn6C5CC5)CC4)nn3)cc2)cc1OC | 21.5 |

* * *

# System: HS 578T breast
# assayComment: NCI-60 one-dose screen, 48 h (100 = growth as untreated, 0 = no growth, -100 = all killed)
# conditionSummary: 10 µM unless noted
Compounds without any hit were thinned out: in the full panel of roughly 83,000, 20% have a hit.
endpointName: growth (%)

| compound | targetEntity | reportedMeasurement |
| --- | --- | --- |
| Cc1ccc[n+](CC(=O)c2cccc3ccccc23)c1 | HS 578T breast | 106 |
| CC(C)(C)C(=O)/C=c1/[nH]c(=O)/c(=C/c2ccccc2O)s1 | HS 578T breast | 71.7 |
| COc1cc(Cn2cc3c(c2)-c2onc(CO)c2CC3)cc(OC)c1OC | HS 578T breast | 80.3 |
| CCCCNC(=O)Oc1ccc(/C(=C(/CC)Cc2ccccc2)c2ccc(OCCCN(C)C)cc2)cc1 | HS 578T breast | 84.4 |
| COc1ccccc1C(OC(C)=O)OC(C)=O | HS 578T breast | 106 |
| O=C(NOC1OC(CO)C(O)C(O)C1O)Nc1ccccc1 (stereo unspecified) | HS 578T breast | 103 |
